From: PubChem BioAssay

inhibition values by entry
# Assay info: TLR3 IRF3 reporter activation blockers – cell-based, poly I:C stimulus, luciferase, 10K MLSCN set, primary screen (AID 602277)
# Particulars: HEK293-TLR3 RL24 IRF3 luciferase reporter, at 10 µM, stronger effect = higher value
Observable: inhibition (%)

> print(dat)
                                    compound  observable  units.symbol  reading
 1                      CCC(=O)Nc1cccc(Br)c1  inhibition             %    -1.97
 2  O=C(O)CCc1ccc(-c2cccs2)n1NC(=O)c1ccccc1Br  inhibition             %     14.2
 3  O=S1(=O)C=CC(Nc2cccc(Cl)c2)C1 (stereo not given)  inhibition             %     30.3
 4  O=S1(=O)CCN2C(=N1)SC1=C2CCN(Cc2ccccc2)C1  inhibition             %     13.7
 5        CCc1cccc(NC(=O)Cn2cc3c(n2)CCCC3)c1  inhibition             %     26.6
 6          O=C(Cn1nnc(-c2cccs2)n1)OC1CCCCC1  inhibition             %     5.67
 7  CCCCCCn1c(CN2CCCC(C)C2)nc2c1c(=O)n(C)c(=O)n2C (stereo not given)  inhibition             %     9.02
 8  COc1cccc2c(=O)cc(C)n(CC(=O)Nc3ccc(C)c(C)c3)c12  inhibition             %   -0.697
 9  O=C1CC(c2ccccc2)CC(O)=C1C=NCCCN1CCOCC1 (stereo not given)  inhibition             %      9.1
10  Cc1c(C#N)c(N)c(C(=O)c2ccccc2)n1Cc1ccccc1  inhibition             %    0.155

* * *

# Assay info: reduction of polyQ htt aggregates in cells – imaging, exon1htt(103Q)mCFP cells, high-content imaging, primary screen (AID 483);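 further: compound exposure lasted 3 days before fixation; percent of the per-plate median nuclei count of sample wells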
# Particulars: exon1htt(103Q)mCFP cell line, aggregate imaging, at 2 µM; measured here: cell count, toxicity
Observable: nuclei count (%)

> print(dat)
                                    molecule  reading
 1  CN1CCN(S(=O)(=O)c2ccc(Sc3nnc(-c4cccs4)n3-c3ccccc3)nc2)CC1      104
 2  Cc1cc(-c2ccccc2)nc2cc(C(=O)NCCCn3ccnc3)nn12     86.1
 3         O=C(O)CCc1ccc(-c2cccs2)n1CCC(=O)O     95.6
 4  O=C(NCCN1CCOCC1)c1ccc2c(c1)N(Cc1ccccc1F)C(=O)CS2     67.6
 5        O=C(CCn1[nH]c(=O)c2ccccc2c1=O)NCCO     97.8
 6  COC(=O)Cc1[nH]nc2c1C(C1C=CCCC1)C(C#N)=C(N)O2 (stereo not given)     90.6
 7  CC1(C)CC(=O)C(CC(=O)NC(=O)NCc2ccccc2)=C(O)C1      102
 8               Nc1nnc(-c2cc3ccccc3oc2=O)s1       94
 9  CC1=C(C)C(=O)NC(Nc2nc(C)c3cc(C)cc(C)c3n2)N1 (stereo not given)      103
10  Cc1c(NC(=O)c2nn(C)c(=O)c3ccccc23)c(=O)n(-c2ccccc2)n1C     98.9
11  COc1ccc(C2CC(c3ccc(C)cc3)Nc3ncnn32)cc1 (stereo not given)      107
12  COc1ccc(NC(=O)C2CCCCN2S(=O)(=O)c2ccc(F)cc2)cc1 (stereo not given)     76.6
13              Cc1cc(N)n2nc(-c3ccccc3)cc2n1     98.3
14       COC(=O)Nc1sccc1C(=O)Nc1sccc1C(=O)OC     96.8
15  CC(C)(C)n1nnnc1CN(Cc1ccco1)Cc1cc2cc3c(cc2[nH]c1=O)OCO3      108
